System: CAL-120
Protocol Summary: normalised response (% of control), CellTox Green; higher = less cell death (100 = DMSO, 0 = benzethonium chloride kill control)
Applied Conditions: incubation time: 72 h
Respond with y for normalised response values of 90% and above, n for values below.

Is reported normalised response greater than or equal to 90% here: C[C@]12CC[C@@H]3c4ccc(OC(=O)N(CCCl)CCCl)cc4CC[C@H]3[C@@H]1CC[C@@H]2O [Estramustine] (1000 nM) y

Now consider CC1(C)CNc2cc(NC(=O)c3cccnc3NCc3ccncc3)ccc21 [Motesanib] (1000 nM) and answer again. y

How about this compound: Cc1ccc([N+](=O)[O-])cc1S(=O)(=O)N(C)/N=C/c1cnc2ccc(Br)cn12 [PIK-75] (10000 nM) n
